# Test system: TRPC4 beta (transient receptor potential cation channel C4), mouse
# protocol: TRPC4 cation channel opening, retest – cell-based, Fluo4 calcium, HEK293 TRPC4beta/mu-opioid, duplicates, 10 µM, confirmation (AID 2426)
# test-parameters: Fluo4 calcium fluorescence, at 10 µM
Activity calls are given as the source filed them.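 Rule for the calls: active = fluorescence ratio normalized to control raised more than 50% in primary screen plus both repeat runs; inactive = the rest.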
Pick one: active, inactive

Some solved entries appear below for comparison.
{"molecule": "Cc1cccc(OCCC(=O)NCC(c2ccccc2)N(C)C)c1 (stereo not given)", "qualitative-label": "inactive"}
{"molecule": "CC1(C(=O)OCc2cc(=O)n3cc(Br)ccc3n2)CC1(Cl)Cl (stereo not given)", "qualitative-label": "inactive"}
{"molecule": "CCOc1cc(CNCCCN2CCOCC2)cc(Br)c1OCC(=O)Nc1cccc(C(F)(F)F)c1", "qualitative-label": "inactive"}
{"molecule": "COC(=O)c1cc(N2CCNCC2)nc2ccccc12", "qualitative-label": "inactive"}
{"molecule": "CNc1oc(-c2ccccc2Cl)nc1P(=O)(c1ccccc1)c1ccccc1", "qualitative-label": "inactive"}
{"molecule": "Cc1csc2c(N3CCN(C(=O)Nc4ccc(OC(F)(F)F)cc4)CC3)ncnc12", "qualitative-label": "active"}
{"molecule": "CC(C)n1c(SCC(=O)N2c3ccccc3Sc3ccccc32)nc2c1c(=O)n(C)c(=O)n2C", "qualitative-label": "inactive"}
{"molecule": "CCOC(=O)C1(Cc2ccccc2C)CCCN(Cc2ccc(NC(C)=O)cc2)C1 (stereo not given)", "qualitative-label": "inactive"}
{"molecule": "Cc1cccc(NC(=O)CSc2nnc(-c3cc(C)n(-c4ccccc4)c3C)o2)c1C", "qualitative-label": "inactive"}

Continue with the molecule presented below.
Q: Fill in: this test's call for CC(C)(C)n1nnnc1C(c1ccc(Cl)cc1)N(Cc1cccnc1)Cc1ccco1 (stereo not given) is ___
Ans: inactive

---

# protocol: nonspecific potentiation of DAMGO calcium response – cell-based, HEK293 mu-opioid receptor line, counter-screen for TRPC4 allosteric potentiator project, confirmation (AID 449724);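 note: HEK293 cells carrying mu-opioid receptor only with no TRPC4 channel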
# test-parameters: HEK293 mu-opioid receptor cells, Fluo-4 calcium flux, at 10 µM, compound added before EC20 DAMGO stimulus; stronger effect = higher value
Active and inactive are the calls of the source.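 How the source made its calls: active means calcium signal rise more than 3 SD above the low-dose agonist control mean, in both duplicate plates and the primary screen; inactive means the rest.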
quantity-name: activation

Answered cases to consult:
{"molecule": "Cc1sc(NC(=O)C2CCCCC2C(=O)O)c(C(N)=O)c1-c1ccc(C(C)(C)C)cc1 (stereo not given)", "activation": "inactive"}
{"molecule": "O=C1NCN(c2ccccc2)C12CCN(CCCC(c1ccc(F)cc1)c1ccc(F)cc1)CC2", "activation": "inactive"}
{"molecule": "Cc1cc(C(C)(C)C)c(O)c(C)c1CC1=NCCN1", "activation": "inactive"}
{"molecule": "C/C(N)=C(/C#N)C(=O)COC(=O)CC12CC3CC(CC(C3)C1)C2", "activation": "inactive"}

Now let's try a different one.
Q: Item under review: CCc1ccc2nc3nc(C)cc(C)c3c(N)c2c1 . Reported activation?
Ans: inactive

---

# assayed-system: Short transient receptor potential channel 6 (Mus musculus)
# protocol: TRPC6 blockade by TRPC4 inhibitor hits – cell-based, HEK293, membrane potential dye, duplicate, selectivity assay for TRPC4 inhibitor project, confirmation (AID 434948)
# test-parameters: HEK293 TRPC6, membrane potential dye fluorescence, at 10 µM, stimulated with maximal-effect acetylcholine
Active and inactive are the calls of the source.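 Rule for the calls: active = active in primary screen and both duplicates, each dropping signal beyond three positive-control SD with fluorescence still positive; inactive = the rest.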
Pick one: yes (active), no (inactive)

{"molecule": "CC(C)(C)c1cc(O)c(C(C)(C)C)cc1O", "qualitative-label": "no"}
{"molecule": "Cc1cc(OCC(=O)N2CCCC2)cc(C)c1Cl", "qualitative-label": "no"}

Q: Fill in: this test's call for COc1ccc(C(=O)C2CCCN(C3Cc4ccccc4C3)C2)cc1OC (stereo not drawn) is ___
Ans: no

Q: Fill in: this test's call for CCCCN=C(Nc1ccc(Cl)cc1)c1cccnc1 is ___
Ans: no

Q: Fill in: this test's call for COc1ccccc1N1CCN(Cc2cc(=O)c(OCC(=O)NC3CCCC3)co2)CC1 is ___
Ans: no

Q: Fill in: this test's call for CC(=O)OCC1O[C@@H](O[C@@H]2C[C@H]3C(C)(C)[C@H](OC(C)=O)CC[C@]3(C)[C@H]3CC[C@]45C[C@]4(CC[C@H]5[C@@H](C)C[C@@H](O)[C@H](O)C(C)(C)O)[C@@]32C)[C@H](O)[C@@H](O)[C@@H]1O (stereo partly drawn) is ___
Ans: no

---

# Tested on: transient receptor potential cation channel C4 beta (TRPC4), mouse
# protocol: TRPC4 cation channel opening, second retest – cell-based, second round, Fluo4, HEK293 TRPC4beta/mu-opioid, 1 µM, confirmation (AID 2461)
# test-parameters: Fluo4 calcium fluorescence, at 1 µM
The source made the active and inactive calls.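 Rule for the calls: active = primary screen active and over 50% activation in each of two duplicate runs; inactive = the rest.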
Pick one: y = active, n = inactive

Some solved entries appear below for comparison.
{"molecule": "CSCC[C@H](NC(=O)N1CCn2c1nc1ccccc12)C(=O)NCc1ccc(F)cc1", "qualitative-label": "n"}
{"molecule": "O=C(NCC(c1ccco1)N1CCc2ccccc2C1)c1ccc(F)cc1 (stereo unspecified)", "qualitative-label": "n"}
{"molecule": "CCOC(=O)c1c(NC(=O)C2CC(Cl)=CCC2C(=O)O)sc2c1CCCCC2 (stereo unspecified)", "qualitative-label": "n"}

Q: Fill in: this test's call for N=c1n(CCO)c2ccccc2n1Cc1ccc(Cl)cc1 is ___
Ans: n

Q: Fill in: this test's call for CC1CCc2c(sc3ncnc(SCC(=O)Nc4ccc(C(=O)O)cc4)c23)C1 (stereo unspecified) is ___
Ans: n

Q: Fill in: this test's call for CC(C)CCNC(=O)CCC(=O)NNc1nc2ccccc2c2nc(-c3ccccc3)nn12 is ___
Ans: n

Q: Fill in: this test's call for CCN1CCN(c2ccc(S(=O)(=O)N3CCOCC3)cc2NC(=O)c2ccccc2OC(F)F)CC1 is ___
Ans: y

Q: Fill in: this test's call for O=C(CSc1nnc(-c2ccccc2)o1)c1ccc2c(c1)OCCO2 is ___
Ans: n

---

# protocol: serotonin-gated TRPC4 signal block – cell-based, second counter screen, HEK293 TRPC4/5HT1a, Fluo-4, counter-screen for TRPC4 inhibitor project, confirmation (AID 434978)
# test-parameters: Fluo-4 calcium flux, at 10 µM, serotonin added to trigger calcium flux; stronger effect = higher value
Activity calls are given as the source filed them.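 The calls were made as follows: active = primary screen active whose calcium signal fell more than 3 SD beyond the full-serotonin control mean in both duplicate plates; inactive = the rest.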
quantity-name: inhibition

Answered cases to consult:
{"molecule": "Cc1cc(C)cc(NC(=S)N2CCN(c3ncc(C(F)(F)F)cc3Cl)CC2)c1", "inhibition": "inactive"}
{"molecule": "CCOc1ccccc1N(C(=O)c1snc(C(N)=O)c1N)C(C(=O)NCc1ccccc1)c1ccc(O)cc1 (stereo unspecified)", "inhibition": "41.9% (active)"}
{"molecule": "Cc1cccc(C)c1N1CCc2cn[nH]c21", "inhibition": "31.5% (active)"}
{"molecule": "O=[N+]([O-])c1c(Nc2cccc(O)c2)cc(Cl)c2nonc12", "inhibition": "inactive"}
{"molecule": "c1ccc(Cn2nnnc2C(c2cccnc2)N2CCN(C3CCCCC3)CC2)cc1 (stereo unspecified)", "inhibition": "inactive"}
{"molecule": "CC1(C(=O)NC(=S)NNC(=O)c2ccncc2)CCCCC1", "inhibition": "inactive"}
{"molecule": "COc1cc(Br)cc(C2C3=C(CCCC3=O)N(c3ccc(F)cc3)C3=C2C(=O)CCC3)c1O", "inhibition": "inactive"}
{"molecule": "CC(=O)OCCCN1C(=O)c2cccc3cc(Br)cc(c23)C1=O", "inhibition": "14.5% (active)"}

Q: Item under review: COCCCNc1cc(C)nc2ccccc12 . Reported inhibition?
Ans: inactive

Q: Item under review: CCN(CC)CCN(Cc1cc2ccc(C)cc2[nH]c1=O)C(=S)Nc1ccccc1C(=O)OC . Reported inhibition?
Ans: inactive

Q: Item under review: CCC(=O)c1cc2c(C)cc(=O)oc2c(C)c1OC(=O)C(C)C . Reported inhibition?
Ans: 12.2% (active)

---

# Tested on: TRPC4 beta (transient receptor potential cation channel C4), mouse
# protocol: potentiation of DAMGO EC20 TRPC4 response – cell-based, Fluo-4, HEK293 TRPC4beta/mu-opioid, confirmation (AID 2555)
# test-parameters: DAMGO EC20, Fluo-4 calcium flux, at 10 µM; stronger effect = higher value
Calls of active or inactive are those of the source.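 How the source made its calls: active means primary screen hit whose calcium fluorescence ratio, in both repeats, exceeds the weak agonist control mean by 3 SD; inactive means the rest.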
quantity-name: potentiation

Answered cases to consult:
{"molecule": "C/C=C(/C)C(=O)O[C@@H]1c2cc(OC)c(OC)c(OC)c2-c2c(cc3c(c2OC)OCO3)C[C@H](C)[C@]1(C)O", "potentiation": "inactive"}
{"molecule": "CCOC(=O)CSc1nc2c(sc(=S)n2Cc2ccco2)c(=O)n1-c1ccccc1", "potentiation": "inactive"}
{"molecule": "Cc1ccc(NS(=O)(=O)c2ccc(NS(=O)(=O)c3cccs3)cc2)cc1", "potentiation": "inactive"}
{"molecule": "Cc1cc(Nc2ccccc2O)c2ccccc2n1", "potentiation": "inactive"}
{"molecule": "O=c1c2ccccc2nc(SCc2ccccc2)n1CC1CCCO1 (configuration not stated)", "potentiation": "inactive"}

Q: Item under review: Cc1cccc(-n2nc(C)c3c(C(=O)O)cc(-c4cccs4)nc32)c1 . Reported potentiation?
Ans: inactive

Q: Item under review: O=C(COC(=O)c1ccccn1)Nc1nc(-c2ccccc2)cs1 . Reported potentiation?
Ans: inactive

Q: Item under review: O=c1c2ccccc2nc(SCc2nc3ccccc3s2)n1CCCO . Reported potentiation?
Ans: inactive

Q: Item under review: CN(C)CCCOC(=O)c1ccc(Cl)cc1Cl . Reported potentiation?
Ans: 8% (active)

Q: Item under review: Cc1ccnc(NC(=O)COC(=O)C23CC4CC(CC(C4)C2)C3)n1 . Reported potentiation?
Ans: 128% (active)

Q: Item under review: Cc1ccc(Cn2c(=N)c(C(=O)NC3CCCC3)cc3c(=O)n4ccccc4nc32)cc1 . Reported potentiation?
Ans: inactive
